Cited source for all entries: patent US20190092846A1

Can you tell me RGA (CAGA-12 luc/Smad-2/3 RGA; IC 50 [pM]) for the items I'm about to list?
# Tgt: T1, human TGF-β3 (human, UniProt P10600 301-412)
# T1 sequence: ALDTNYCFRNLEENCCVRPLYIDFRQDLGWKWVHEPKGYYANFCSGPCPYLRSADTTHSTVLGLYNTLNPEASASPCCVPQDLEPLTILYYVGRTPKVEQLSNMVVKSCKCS
# Measurement Protocol: cell-based or functional assay

[
  {
    "Binder": "MOR14800 (antibody, human IgG1, lambda, V domains shown) VH: QVQLVQSGAEVKKPGESLKISCKGSGYSFTRYYVAWVRQMPGKGLEWMGWIDPGQSNTRYSPSFQGQVTISADKSISTAYLQWSSLKASDTAMYYCARMLAWGWFDYWGQGTLVTVSS VL: SYELTQPLSVSVALGQTARITCSGDNLGGYYAHWYQQKPGQAPVLVIYDTSDRPSGIPERFSGSNSGNTATLTISRAQAGDEADYYCASYDSSLMMVFGGGTKLTVLG",
    "Result Value": "> 100000 pM"
  },
  {
    "Binder": "1D11 (antibody, V domains shown) VH: QVQLQQSGPELVRPGASVKLSCKASGYIFITYWMNWVKQRPGQGLEWIGQIFPASGSTNYNEMFEGKATLTVDTSSSTAYMQLSSLTSEDSAVYYCARGDGNYALDAMDYWGQGTSVTVSS VL: DIVLTQSPASLAVSLGQRATISCRASESVDSYGNSFMHWYQQKSGQPPKLLIYLASNLESGVPARFSGSGSRTDFTLTIDPVEADDAATYYCQQNNEDPLTFGAGTKLEIK",
    "Result Value": "32 pM"
  },
  {
    "Binder": "MOR14787 (antibody, human IgG1, kappa, V domains shown) VH: QVQLVQSGAEVKKPGSSVKVSCKASGGTFSSYAISWVRQAPGQGLEWMGVIVPKWGHPQYAQKFQGRVTITADESTSTAYMELSSLRSEDTAVYYCAREGDFVVLVLTEHYMGGFDVWGQGTLVTVSS VL: DIQMTQSPSSLSASVGDRVTITCRASQSIDEYLNWYQQKPGKAPKLLIYAGSNLQSGVPSRFSGSGSGTDFTLTISSLQPEDFATYYCLQGYSYPRTFGQGTKVEIKR",
    "Result Value": "> 100000 pM"
  }
]

// below: RGA (CAGA-12 luc/Smad-2/3 RGA; IC 50 [pM]) requested for another binder
Q: // lookup RGA (CAGA-12 luc/Smad-2/3 RGA; IC 50 [pM]) for MOR14805 (antibody, human IgG1, lambda, V domains shown) VH: QVQLVQSGAEVKKPGESLKISCKGSGYSFTRYYVAWVRQMPGKGLEWMGWIDPGTSNTRYSPSFQGQVTISADKSISTAYLQWSSLKASDTAMYYCARMLAWGWFDYWGQGTLVTVSS VL: SYELTQPLSVSVALGQTARITCSGDNLGGYYAHWYQQKPGQAPVLVIYDKSDRPSGIPERFSGSNSGNTATLTISRAQAGDEADYYCASYDSSLMMVFGGGTKLTVLG
Result: > 100000 pM
